molecular target: OTUD5 (UniProt Q96G74); test: log2 ratio of Biotin-Ahx-Ub-VS probe labelling (fragment/DMSO); higher = less target engagement (more negative = stronger competition), active = hit call of the paper (q ≤ 0.05, log2 ratio ≤ -1); details: compound concentration: 200 uM; treatment time: 3 h
Sequence (Q96G74 whole entry, the tested form may be a part): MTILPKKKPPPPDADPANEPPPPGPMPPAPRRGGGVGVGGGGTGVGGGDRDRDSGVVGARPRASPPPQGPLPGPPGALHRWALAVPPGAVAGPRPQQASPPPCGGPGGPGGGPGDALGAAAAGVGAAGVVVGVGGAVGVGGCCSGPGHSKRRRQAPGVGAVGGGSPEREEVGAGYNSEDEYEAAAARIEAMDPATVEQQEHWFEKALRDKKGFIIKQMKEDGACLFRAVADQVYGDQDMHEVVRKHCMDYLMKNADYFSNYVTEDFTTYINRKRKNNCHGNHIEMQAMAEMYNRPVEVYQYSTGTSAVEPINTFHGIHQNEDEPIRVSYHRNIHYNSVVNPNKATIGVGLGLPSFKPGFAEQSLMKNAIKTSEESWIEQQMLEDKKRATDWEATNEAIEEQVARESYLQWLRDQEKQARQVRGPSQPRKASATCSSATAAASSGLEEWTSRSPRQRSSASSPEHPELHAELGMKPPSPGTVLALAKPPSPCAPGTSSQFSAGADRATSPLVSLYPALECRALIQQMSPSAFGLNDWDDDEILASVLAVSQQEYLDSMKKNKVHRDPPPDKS
Write down the outcome that applies. Available outcomes: active, inactive

Study these solved cases before continuing.
{"compound": "COc1ccccc1C(C)NC(=O)CCl (configuration not stated)", "classAssignment": "inactive"}
{"compound": "Cc1noc(N2CCN(C(=O)CCl)CC2)n1.Cl", "classAssignment": "inactive"}
{"compound": "CC(c1ccccc1)N(C)C(=O)CCl (configuration not stated)", "classAssignment": "inactive"}

Query: Write down the call the test reported for this compound. Item: `N#Cc1ccc(Cl)cc1NC(=O)CCl`
Response: inactive

Query: Which outcome was assigned to `Cc1c(NC(=O)CCl)c(=O)n(-c2ccccc2)n1C` in this test?
Response: inactive

Query: Could you check what this test reported for `O=C(CCl)N1CC=C(c2c[nH]c3ccccc23)CC1` ?
Response: active

Query: Hi, sorry to bother you, what did the test record for `O=C(CCl)N1CCCN(C(=O)c2ccc(Cl)cc2)CC1` ?
Response: inactive
